Test system: UO-31
Measurement description: NCI tumour cell line growth inhibition, 48 h
Activity calls are given as the source filed them. No stated cut-off is given here; in the data, active = GI50 up to about 1.1 µM and inactive = higher.
Pick from true (1) (active), false (0) (inactive) when you respond.

CO/C1=C\C(C)=C\C(C)C(O)C(C)C/C(C)=C/C=C/C(OC)C(C(C)C(O)C(C)C2(O)CC(O)C(C)C(C(C)C)O2)OC1=O (stereo not given): true (1)
CC(=O)[C@@]1(C)CC2(CCN(C)CC2)OC1C (stereo not given in full): false (0)
N=C(N)N/N=C(\c1ccc(Cl)cc1)C1CC1: false (0)
COc1ccc2[nH]c3c(C)c4cc[n+](C)cc4c(C)c3c2c1: false (0)

Hi team, can someone confirm the assay call for "Oc1c(Br)c(-c2ccccc2)nc2ccccc12" ?
false (0)

Just curious, what result did CCOC(=O)c1cc(C2CCN(Cc3ccccc3)C2=O)c(C(=O)/C=C(/C)N)[nH]1 (stereo not given) get here?
false (0)

Please share the test call associated with CC1=C2C(O)C(C(C)CO)C(O)CC2(C)C(O)CC1 (stereo not given) .
false (0)

Returns: the outcome recorded for "CCN(CC)CCOC(c1ccccc1)c1ccccc1.CCOC(=O)Nc1ccc(S(=O)(=O)OC)cc1.CCOC(=O)Nc1ccc(S(=O)(=O)OC)cc1.Nc1ccc(C(=O)O)c(O)c1" in this assay.
false (0)

I'd appreciate the recorded outcome for c1ccc2c(c1)SCCC2NC1=NCCO1 (stereo not given) from this test.
false (0)

Test call for this compound, please: Cc1ccc(C2=Nc3c(N)nc(N)nc3NC(c3ccccc3)C2)cc1 (stereo not given)
false (0)
